target: mutant MGL (Homo sapiens, UniProt Q99685, L169S/L176S); test: MGL ThermoFluor assay - mutant; type: binding; conditions: ThermoFluor thermal stability binding assay, read-out: MGL mutant ThermoFluor Kd
Sequence (Q99685 whole entry L169S/L176S): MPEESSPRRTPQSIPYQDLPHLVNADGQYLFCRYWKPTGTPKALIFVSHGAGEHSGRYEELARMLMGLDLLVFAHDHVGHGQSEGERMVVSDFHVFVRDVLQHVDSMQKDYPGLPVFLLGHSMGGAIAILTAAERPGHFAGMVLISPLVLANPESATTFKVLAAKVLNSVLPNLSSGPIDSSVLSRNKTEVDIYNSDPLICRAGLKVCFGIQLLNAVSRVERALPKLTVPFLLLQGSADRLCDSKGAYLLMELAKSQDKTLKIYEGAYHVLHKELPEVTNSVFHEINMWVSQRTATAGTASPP
property measured: pKd
Reminder that pKd means the negative base-10 logarithm of the concentration expressed in mol/L.

Data point: `O=C(c1ccc2c(c1)CCN2)N1CC(N2CCN(C(=O)c3nccs3)CC2)C1` ; pKd = 6.30

Data point: `O=C(c1ccc(OCc2cccc(Cl)c2)cc1)N1CC(N2CCN(C(=O)c3nccs3)CC2)C1` ; pKd = 8.10

Data point: `O=C(c1cscn1)N1CCN(C2CN(C(=O)c3cc4cc(Br)cnc4o3)C2)CC1` ; pKd = 5.15

Data point: `O=C(c1ccccc1)N1CCN(C2CN(C(=O)c3sc4cc(-c5ccccc5)ccc4c3Cl)C2)CC1` ; pKd = 8.00

Data point: `Cc1nc(-c2ccc(F)cc2)sc1C(=O)N1CC(N2CCN(C(=O)c3cscn3)CC2)C1` ; pKd = 6.88

Data point: `O=C(c1ccc(-c2ccc(F)cc2F)cc1)N1CC(N2CCN(C(=O)c3cscn3)CC2)C1` ; pKd = 7.70

Data point: `CC(=O)Nc1cccc(-c2ccc(C(=O)N3CC(N4CCN(C(=O)c5ccccc5)CC4)C3)cc2)c1` ; pKd = 5.88

Data point: `O=C(c1nccs1)N1CCN(C2CN(C(=O)c3cccc4[nH]c(Cc5ccccc5)nc34)C2)CC1` ; pKd = 5.30

Data point: `O=C(c1ccccc1)N1CCN(C2CN(C(=O)c3cccc4[nH]c(-c5ccccc5Cl)nc34)C2)CC1` ; pKd = 5.78

Data point: `O=C(c1ccccc1)N1CCN(C2CN(C(=O)c3sc4cc(C(F)(F)F)ccc4c3-c3ccccc3)C2)CC1` ; pKd = 8.15

Data point: `Cc1nc(-c2cccc(Cl)c2)sc1C(=O)N1CC(N2CCN(C(=O)c3cscn3)CC2)C1` ; pKd = 7.08

Data point: `O=C(c1cscn1)N1CCN(C2CN(C(=O)c3cc4cc(C(F)(F)F)ccc4s3)C2)CC1` ; pKd = 7.03

Data point: `O=C(c1nccs1)N1CCN(C2CN(C(=O)c3sc4cc(Br)ccc4c3Cl)C2)CC1` ; pKd = 9.40

Data point: `O=C(c1ccccc1)N1CCN(C2CN(C(=O)c3ccc(OCc4ccc(Cl)c(Cl)c4)cc3)C2)CC1` ; pKd = 7.40

Data point: `Cc1c(C(=O)N2CC(N3CCN(C(=O)c4cscn4)CC3)C2)nn(-c2ccc(Cl)cc2Cl)c1-c1ccc(Cl)cc1` ; pKd = 7.52

Data point: `O=C(c1ccccc1)N1CCN(C2CN(C(=O)c3sc4cc(F)ccc4c3Cl)C2)CC1` ; pKd = 7.42

Data point: `O=C(c1cc2cc(C(F)(F)F)ccc2s1)N1CC(N2CCN(C(=O)c3nccs3)CC2)C1` ; pKd = 7.78

Data point: `O=C(c1cccc(NCc2ccccc2)c1)N1CC(N2CCN(C(=O)c3nccs3)CC2)C1` ; pKd = 7.00

Data point: `N#Cc1csc(C(=O)N2CCN(C3CN(C(=O)c4ccc(-c5ccccc5)cc4)C3)CC2)c1` ; pKd = 6.60

Data point: `O=C(c1ccc(OCc2ccncc2)c(Cl)c1)N1CC(N2CCN(C(=O)c3nccs3)CC2)C1` ; pKd = 7.06

Data point: `O=C(c1ccc2c(c1)CCCN2C(=O)c1cccc(C(F)(F)F)c1)N1CC(N2CCN(C(=O)c3nccs3)CC2)C1` ; pKd = 7.19

Data point: `O=C(c1ccc(-n2nccc2-c2ccc(F)cc2)cc1)N1CC(N2CCN(C(=O)c3nccs3)CC2)C1` ; pKd = 6.62

Data point: `CC(=O)Nc1cccc(-c2ccc(C(=O)N3CC(N4CCN(C(=O)c5nccs5)CC4)C3)cc2)c1` ; pKd = 7.32

Data point: `O=C(c1cscn1)N1CCN(C2CN(C(=O)c3cccc4nc(-c5ccccc5)oc34)C2)CC1` ; pKd = 7.19

Data point: `O=C(c1ccccc1)N1CCN(C2CN(C(=O)c3ccc4nc(-c5cccc(C(F)(F)F)c5)oc4c3)C2)CC1` ; pKd = 7.03

Data point: `O=C(c1ccccc1)N1CCN(C2CN(C(=O)c3cc4cccc(C(F)(F)F)c4s3)C2)CC1` ; pKd = 7.20

Data point: `O=C(c1ccccc1)N1CCN(C2CN(C(=O)c3ccc4c(ccn4-c4ccc(F)c(F)c4)c3)C2)CC1` ; pKd = 7.34

Data point: `O=C(c1nccs1)N1CCN(C2CN(C(=O)c3sc4cc(F)ccc4c3Cl)C2)CC1` ; pKd = 8.30

Data point: `O=C(c1nccs1)N1CCN(C2CN(C(=O)c3sc4cc(C(F)(F)F)c(F)cc4c3Cl)C2)CC1` ; pKd = 9.00

Data point: `O=C(c1ccc(-c2ccccc2)cc1)N1CC(N2CCN(C(=O)c3cocn3)CC2)C1` ; pKd = 7.17

Data point: `O=C(c1nccs1)N1CCN(C2CN(C(=O)c3cc(-c4ccccc4)oc3C(F)(F)F)C2)CC1` ; pKd = 7.38
